Test: NCI Yeast Anticancer Drug Screen. Data for the rad50 strain (AID 155)
Conditions: S. cerevisiae rad50 strain growth inhibition; at 100.0 µM; hits give high values
Experimental: Growth inhibition of yeast strains with defined genetic alterations is measured as a screen for potential anti-cancer activity. Selected strains with alterations in DNA damage repair or cell cycle control were exposed to compounds and growth inhibition was measured relative to vehicle treated controls. The strain used in this assay is rad50
This is part of a sample that, as a whole, favours compounds with a hit. Of some 79,000 tested, about 15% had one in any assay.
Values of growth inhibition greater than or equal to 90% map to criterion met; values below map to criterion not met.

> print(dat)
          given.smiles                cat
1  Nc1cccc2cc(Cl)cnc12  criterion not met

Q) Check if growth inhibition >= 90% (inclusive). Item: N=C(N)c1ccc(N=Nc2c(O)ccc3c2[nH]c2ccccc23)cc1
A) criterion met

Q) Check if growth inhibition >= 90% (inclusive). Item: O=C(O)CN(CCNC(=O)OCC1c2ccccc2-c2ccccc21)CCNC(=O)OCC1c2ccccc2-c2ccccc21
A) criterion met

Provenance of the data: PubChem BioAssay (NCI)
